Value source: patent US20220348647A1

# tested_on: T1, human CCL17 (human, UniProt Q92583 24-94)
# T1 construct: Biotinylated in the Fab ELISAs; also called huCCL17; Bt-huCCL17
# T1 sequence: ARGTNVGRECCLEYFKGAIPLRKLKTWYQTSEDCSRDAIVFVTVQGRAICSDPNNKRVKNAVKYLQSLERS
# assay_details: not stated in the legend (affinities by MSD-SEA in Examples 3 and 4)
Reported values of Kd for individual entries
readout_kind: Kd

INSERT INTO results (binder, readout_kind, reported_value) VALUES
  ('C17B294 (antibody, IgG1, V domains shown, Expressed as IgG1; Heavy chain S100cT (Kabat) paired with the light chain of C17B258) VH: EVQLVQSGAEVKKPGESLKISCKGSGYSFTSYWIGWVRQMPGKGLEWMGIIDPSDSDTRYSPSFQGQVTISADKSISTAYLQWSSLKASDTAMYYCARVGPADVWDTFDYWGQGTLVTVSS VL: DIVMTQSPDSLAVSLGERATINCKSSQSVLLSFDNINKLAWYQQKPGQPPKLLIYDASTRESGVPDRFSGSGSGTDFTLTISSLQAEDVAVYYCQQFYSVPSTFGQGTKVEIK', 'Kd', '≤ 100 nM'),
  ('C17B241 (antibody, V domains shown, Full IgG1, kappa) VH: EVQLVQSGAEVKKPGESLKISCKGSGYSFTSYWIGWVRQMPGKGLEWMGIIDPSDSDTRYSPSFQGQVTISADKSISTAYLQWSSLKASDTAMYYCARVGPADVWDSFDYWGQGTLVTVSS VL: DIVMTQSPDSLAVSLGERATINCKSSQSVLNSFTNNNALAWYQQKPGQPPKLLIYEASTRESGVPDRFSGSGSGTDFTLTISSLQAEDVAVYYCQQTNSIPLTFGQGTKVEIK', 'Kd', '≤ 100 nM');
